Quick reference: Ki of the listed items.
- TARGET_UNDER_TEST: 5HT2
- ASSAY_DETAILS: Radioligand binding affinity, 5HT2
MEASUREMENT_NAME: Ki (nM)

                              line_notation  target_under_test  measurement_name  observed_result
0  CS(=O)(=O)c1ccc2c(c1)N(CCCN1CCC(C(=O)O)CC1)c1ccccc1S2               5HT2                Ki              370
1  CS(=O)(=O)c1ccc2c(c1)N(CCCN1CCC(C(N)=O)CC1)c1ccccc1S2               5HT2                Ki               15

---

- TARGET_UNDER_TEST: α1
- ASSAY_DETAILS: Radioligand binding affinity, α1
MEASUREMENT_NAME: Ki (nM)

                                   compound  target_under_test  observed_result
0  CS(=O)(=O)c1ccc2c(c1)N(CCCN1CCC(C(=O)O)CC1)c1ccccc1S2 [Metopimazine acid]                 α1              210
1  CS(=O)(=O)c1ccc2c(c1)N(CCCN1CCC(C(N)=O)CC1)c1ccccc1S2 [Metopimazine]                 α1              1.9

---

- TARGET_UNDER_TEST: hERG channel (Homo sapiens (Human))
- Sequence (Q12809 whole entry): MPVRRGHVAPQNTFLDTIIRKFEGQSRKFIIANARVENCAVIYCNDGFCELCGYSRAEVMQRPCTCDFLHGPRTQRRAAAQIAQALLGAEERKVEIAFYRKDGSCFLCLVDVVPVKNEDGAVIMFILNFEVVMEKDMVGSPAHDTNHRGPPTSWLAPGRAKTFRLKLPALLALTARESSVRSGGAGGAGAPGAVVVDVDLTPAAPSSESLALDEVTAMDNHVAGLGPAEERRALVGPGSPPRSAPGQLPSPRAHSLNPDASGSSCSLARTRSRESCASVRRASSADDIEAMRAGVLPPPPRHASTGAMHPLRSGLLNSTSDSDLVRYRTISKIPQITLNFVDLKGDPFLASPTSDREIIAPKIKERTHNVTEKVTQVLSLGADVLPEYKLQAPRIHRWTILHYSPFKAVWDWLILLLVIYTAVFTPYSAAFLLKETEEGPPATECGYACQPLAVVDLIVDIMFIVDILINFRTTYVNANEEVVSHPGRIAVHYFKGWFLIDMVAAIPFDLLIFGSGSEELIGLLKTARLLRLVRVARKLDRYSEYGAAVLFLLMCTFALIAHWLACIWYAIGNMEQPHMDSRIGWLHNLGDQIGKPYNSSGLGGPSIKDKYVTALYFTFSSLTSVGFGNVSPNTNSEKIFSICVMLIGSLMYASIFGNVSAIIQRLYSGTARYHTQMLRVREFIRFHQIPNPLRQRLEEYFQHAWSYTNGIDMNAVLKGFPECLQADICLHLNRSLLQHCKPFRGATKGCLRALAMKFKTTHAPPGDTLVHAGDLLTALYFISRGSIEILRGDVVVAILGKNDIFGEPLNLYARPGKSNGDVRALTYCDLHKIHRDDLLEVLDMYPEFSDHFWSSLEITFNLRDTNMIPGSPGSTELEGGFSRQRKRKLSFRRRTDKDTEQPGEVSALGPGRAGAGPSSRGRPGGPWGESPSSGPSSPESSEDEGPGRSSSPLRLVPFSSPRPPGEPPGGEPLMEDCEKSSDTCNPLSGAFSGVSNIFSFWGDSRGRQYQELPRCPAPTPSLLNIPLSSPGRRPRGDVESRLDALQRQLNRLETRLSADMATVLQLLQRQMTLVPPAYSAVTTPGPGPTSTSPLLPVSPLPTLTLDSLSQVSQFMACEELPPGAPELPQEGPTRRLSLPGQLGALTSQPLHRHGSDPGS
- ASSAY_DETAILS: hERG voltage clamp assay in hERG-expressing cultured cells
- Format: cell-based
- SETUP_CONDITIONS: human, hERG-expressing cultured cells; 100 nM; read-out: hERG Activity (% Inhibition of Tail Current)
MEASUREMENT_NAME: inhibition at 0.1 µM (%)

In [3]: df
Out[3]:
                              line_notation      measurement_name  unit_of_measure  observed_result
0  CS(=O)(=O)c1ccc2c(c1)N(CCCN1CCC(C(N)=O)CC1)c1ccccc1S2  inhibition at 0.1 µM                %              4.5
1  CS(=O)(=O)c1ccc2c(c1)N(CCCN1CCC(C(=O)O)CC1)c1ccccc1S2  inhibition at 0.1 µM                %              0.2

---

- TARGET_UNDER_TEST: UniProt:Q12809
- ASSAY_DETAILS: hERG voltage clamp assay in hERG-expressing cultured cells
- Type: cell-based
- SETUP_CONDITIONS: human, hERG-expressing cultured cells; 10 μM; read-out: hERG Activity (% Inhibition of Tail Current)
MEASUREMENT_NAME: inhibition at 10 µM (%)

In [3]: df
Out[3]:
                              line_notation  target_under_test  unit_of_measure  observed_result
0  CS(=O)(=O)c1ccc2c(c1)N(CCCN1CCC(C(=O)O)CC1)c1ccccc1S2     UniProt:Q12809                %               11
1  CS(=O)(=O)c1ccc2c(c1)N(CCCN1CCC(C(N)=O)CC1)c1ccccc1S2     UniProt:Q12809                %               82
